The origin of these recorded values is patent US20240309087A1.

TARGET_ENTITY: T1, hCD112R mFC recombinant protein (human; murine, UniProt Q6DKI7 41-160)
T1 construct: range 41-160; expressed in 293E cells; also called hCD112R ECD mFC; hCD112R-ECD-mFC; not shown: murine IgG2a Fc domain (MX2-mFc vector)
T1 sequence (looked up): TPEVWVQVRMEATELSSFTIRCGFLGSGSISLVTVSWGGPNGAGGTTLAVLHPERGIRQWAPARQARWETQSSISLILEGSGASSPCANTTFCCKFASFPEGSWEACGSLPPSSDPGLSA
PROCEDURE_SUMMARY: ELISA, coated hCD112R-ECD-mFC; EC50 COM701/EC50 antibody
Let's look at some binders and their measured Relative activity (%).
A number alone suffices; assume %.

BINDER | Relative activity (%)
Hu14 (antibody, IgG4, V domains shown, humanized IgG4) VH: EVQLVESGGGLVKPGGSLRLSCAASGFTFSSYHMSWVRQAPGKGLELVSAISRDGDSTYYPDTVKGRFTISRDNAKNSLYLQMNSLRAEDTAVYYCSRHEDYFGFAMDSWGQGTLVTVSS VL: AIQMTQSPSSLSASVGDRVTITCKASQSVTNDVAWYQQKPGKAPKLLIYYVSNHYTGVPSRFSGSGSGTDFTLTISSLQPEDFATYFCQQAYRSPWTFGQGTKLEIK | 129

Field: next binder
# binder Hu6 (antibody, IgG4, V domains shown, humanized IgG4; also called Hu-06) VH: EVQLVESGGGLVQPGGSLRLSCAASGFTFSSYHMSWVRQAPGKGLELVAAINSNDINTYYLDTVKGRFTISRDIAKNSLYLQMNSLRAEDTAVYYCARHEDYYGFAMDYWGQGTLVTVSS VL: EIVMTQSPPTLSLSPGERVTLSCKASQSVSNDVAWYQQKPGQAPRLLIYYVSNRFTGIPARFSGSGSGTDFTLTISSLQPEDFAVYFCQQAYRSPWTFGQGTKLEIK ; its Relative activity (%) = 158
